Origin of values: the supplement of paper PMC3334620

- experimental-target: Yer064c (UniProt P40041)
- Sequence: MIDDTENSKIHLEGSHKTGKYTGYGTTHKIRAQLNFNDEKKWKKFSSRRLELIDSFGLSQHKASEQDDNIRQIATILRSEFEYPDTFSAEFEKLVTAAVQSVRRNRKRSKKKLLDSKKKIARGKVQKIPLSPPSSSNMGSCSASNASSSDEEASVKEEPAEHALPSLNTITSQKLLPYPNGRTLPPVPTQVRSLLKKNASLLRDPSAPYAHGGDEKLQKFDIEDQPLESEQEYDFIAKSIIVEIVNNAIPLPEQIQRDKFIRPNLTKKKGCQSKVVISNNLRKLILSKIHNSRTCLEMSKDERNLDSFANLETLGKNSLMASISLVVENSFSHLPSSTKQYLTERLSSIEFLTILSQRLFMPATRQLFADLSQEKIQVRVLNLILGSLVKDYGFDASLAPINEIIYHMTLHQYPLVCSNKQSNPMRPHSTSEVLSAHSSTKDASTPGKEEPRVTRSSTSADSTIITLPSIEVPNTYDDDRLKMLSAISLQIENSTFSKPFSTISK
- assay-notes: PBM E-score (8-mer binding enrichment) (E-score (-0.5 to 0.5)); higher = stronger / more preferred TF binding
- study-conditions: protein concentration: 200 nM; construct: GST-full length
The full ranking holds about 33,000 sequences; the median of “E-score (-0.5 to 0.5)” is about -0.036, and the highest 2% start at about 0.37. Only a selection was taken, and the highest values are over-represented in it overall.
// thresholds for PBM E-score classes: interval 1 = under -0.008, interval 2 = from -0.008 up to 0.3, interval 3 = 0.3 and over

Solved entries (count: 5):
seq-text | experimental-target | group
GACACGCA | Yer064c (UniProt P40041) | interval 1
GTGATTTA | Yer064c (UniProt P40041) | interval 3
CGCGACTA | Yer064c (UniProt P40041) | interval 3
TAGCCGCA | Yer064c (UniProt P40041) | interval 1
ATTCGTCG | Yer064c (UniProt P40041) | interval 2

Category lookup for the sequence `AGTCGTCA`
interval 3

Category lookup for the sequence `AGGACTAG`
interval 2
